Quick reference for gcPBM binding intensity (ln) among some sequences
Tested on: PfSIP2 AP2 domain 1 (GST-tagged)
run.description: gcPBM binding intensity (ln(normalized median fluorescence intensity)); higher = stronger DNA binding
In all, about 25,000 sequences were measured (“ln(normalized median fluorescence intensity)”: median about 7.1, highest 2% from about 10 on). What follows is part of a selection rich in the highest values, with near analogues and random picks from the rest.
Output spec: single numeric token, no unit.

A selection of reference data follows.
sequence	gcPBM binding intensity (ln)
TTTTCTCTAAAAAGGTGTACAACTAATAATGCACTG [XGTACX_site6074]	9.09
TATAAATATACAAACACACATACAAACATATATATA [CACACA_site1120]	7.27
CAAAACAAAGTTGCCGCACACAGATACGCACCCAAG [CACACA_site3455]	11.9
TAAATATATAAATACACACAAACATACATATATATA [CACACA_site4050]	7.55

So what does the record say about gcPBM binding intensity (ln) for TACACAAATATATATATATATATATATATATATATA [XGTACX_negctrl_site305] ?
9.89

So what does the record say about gcPBM binding intensity (ln) for GCCGCACCCAGATACGCACACAAGAAAAAAATATTC [CACACA_site3456] ?
11.1

So what does the record say about gcPBM binding intensity (ln) for AATATAATATAATGCACACATAAACAAAAAAAAAAT [CACACA_site1304] ?
7.53

So what does the record say about gcPBM binding intensity (ln) for AAAATATAAAATAATGCACACATAAACAAAAAATCA [CACACA_site8382] ?
7.33

So what does the record say about gcPBM binding intensity (ln) for CATACACAAGAAAATTCACACACACCCATATATATA [CACACA_site9288] ?
7.73
